Origin of values: PubChem BioAssay (NCI)

- Test system: RPMI-8226 leukemia
- test: NCI tumour cell line growth inhibition, 48 h
endpoint: TGI

Solved cases (2 shown):
- O=[N+]([O-])c1ccc(/C=N/Nc2nnc3c4ccccc4c4ncccc4c3n2)o1: > 10 µM
- c1ccc(P(CCP(c2ccccn2)c2ccccn2)c2ccccc2)cc1: 40.6 µM

Dear colleague, I am looking for the recorded TGI of the following molecule: "CN1C(=O)[C@@H](NC(=O)[C@H](CCC(F)(F)F)[C@H](CCC(F)(F)F)C(N)=O)N=C(c2ccccc2)c2ccccc21"
> 100 µM

Dear colleague, I am looking for the recorded TGI of the following molecule: "CCN(CC)CCNC(=O)c1ccc(I)cc1"
> 100 µM

Dear colleague, I am looking for the recorded TGI of the following molecule: CC(=O)C1C(=O)NC(=O)C1=O (centres undefined)
> 100 µM

* * *

Below, each entry is listed alongside its reported TGI.
- Test system: HT29 colon
- test: NCI tumour cell line growth inhibition, 48 h

• CCN1C2=NCCN2S(=O)(=O)c2ccccc21 = > 100 µM
• CC(=O)N1c2ccccc2NC2=C(C(=O)N(Cc3ccccc3)C2(C)C)C1c1ccco1 (stereo not given) = > 25 µM
• O=C1NC(N2CCCCC2)=N/C1=C\c1cccs1 = > 100 µM
• CCCCCCCC/C=C\CCCCCCCC(=O)O = > 500 µM

From here, focus on the item given below.
Dear colleague, I am looking for the recorded TGI of the following compound: "Cn1c(-c2cccs2)cc(-c2cccs2)c1-c1ccco1"
> 100 µM

* * *

- Tested on: ACHN renal
- test: NCI tumour cell line growth inhibition, 48 h
endpoint: TGI

Solved cases (2 shown):
- O=Cc1ccc(-c2ccc(-c3nc4ccccc4o3)cc2)s1: > 100 µM
- O=C1NC(N2CCCCC2)=N/C1=C\c1cccs1: > 100 µM

Dear colleague, I am looking for the recorded TGI of the following molecule: "COC(=O)c1c(O)c([N+](=O)[O-])cc2c1c1c(n2Cc2ccccc2)C(=O)c2ccccc2C1=O"
> 100 µM

* * *

- Tested on: UO-31 renal
- test: NCI tumour cell line growth inhibition, 48 h
Below, each entry is listed alongside its reported TGI.

Solved cases (4 shown):
- Cc1cccc(CC(Cc2c(C)cccc2C(=O)O)C(=O)O)c1 (stereo not given): > 100 µM
- COC(=O)Nc1nc2ccc(C(=O)c3ccc(N(C)C4COC4)cc3)cc2[nH]1: > 100 µM
- O=C(c1ccccc1)c1oc2ccc(Br)cc2c1-c1cnn(-c2ccccc2)c1: > 100 µM
- CN1CCN(c2ccc(Nc3nc(N)c(C(=O)c4ccc5c(c4)OCCO5)s3)cc2)CC1: 8.02 µM

From here, focus on the item given below.
Dear colleague, I am looking for the recorded TGI of the following compound: "CN(CCO)c1nc(N)cc(=O)[nH]1"
> 100 µM

* * *

- Test system: SW-620 colon
- test: NCI tumour cell line growth inhibition, 48 h
endpoint: TGI

Dear colleague, I am looking for the recorded TGI of the following compound: "CN(/N=C/c1cccc2cccnc12)c1ccc([N+](=O)[O-])cc1"
> 100 µM

* * *

- Tested on: M14 melanoma
- test: NCI tumour cell line growth inhibition, 48 h
Below, each entry is listed alongside its reported TGI.

Solved cases (2 shown):
* Cc1[nH]c2ccccc2c1-c1cc(-c2cc(-c3c(C)[nH]c4ccccc34)nc(N)n2)nc(N)n1 | > 100 µM
* O=Cc1ccc(-c2ccc(-c3nc4ccccc4o3)cc2)s1 | 70 µM

Dear colleague, I am looking for the recorded TGI of the following molecule: "O=C(CCCNc1nc(-c2ccccc2)cs1)c1cccs1"
> 100 µM
